furin cleavage Z-score by entry:
systemUnderTest: furin, P09958;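 also: purified furin at 1:10 enzyme:substrate in 50 mM HEPES pH 7.5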
Sequence (P09958 whole entry): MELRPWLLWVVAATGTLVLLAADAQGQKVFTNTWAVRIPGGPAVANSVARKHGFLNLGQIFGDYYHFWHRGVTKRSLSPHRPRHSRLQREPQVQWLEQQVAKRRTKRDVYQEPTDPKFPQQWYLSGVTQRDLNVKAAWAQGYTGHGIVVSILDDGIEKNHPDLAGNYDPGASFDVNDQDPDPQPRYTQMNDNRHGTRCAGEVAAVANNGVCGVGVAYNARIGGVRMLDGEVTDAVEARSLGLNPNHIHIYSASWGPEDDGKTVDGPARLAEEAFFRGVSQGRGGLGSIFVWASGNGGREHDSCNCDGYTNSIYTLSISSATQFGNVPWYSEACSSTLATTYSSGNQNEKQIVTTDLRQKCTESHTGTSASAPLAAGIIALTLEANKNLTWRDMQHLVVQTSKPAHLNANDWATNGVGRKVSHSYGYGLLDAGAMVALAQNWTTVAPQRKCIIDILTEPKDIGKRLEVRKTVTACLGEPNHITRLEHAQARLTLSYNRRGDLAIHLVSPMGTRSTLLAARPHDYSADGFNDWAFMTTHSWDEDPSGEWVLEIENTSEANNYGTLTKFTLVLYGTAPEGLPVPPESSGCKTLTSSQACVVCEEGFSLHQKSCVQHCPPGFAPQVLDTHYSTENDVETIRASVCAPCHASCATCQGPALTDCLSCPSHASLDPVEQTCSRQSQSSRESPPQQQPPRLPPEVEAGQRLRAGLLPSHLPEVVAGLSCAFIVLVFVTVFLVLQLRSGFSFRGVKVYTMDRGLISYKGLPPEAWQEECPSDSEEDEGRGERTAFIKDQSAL
experimentSummary: furin cleavage Z-score vs untreated control; higher = more cleavage, active = 3.5 or more, inactive = 1 or less, 8 variable residues between constant flanks
measurementContext: 15 min
The list shows a part of the results. No count for the full screen is at hand.

monomerSequence	furin cleavage Z-score
CAVSGRVPRSAGNASASA [FS-1103]	7.59
CAADAVDGAGAGNASASA [CS10]	-1.19
CAVYSTTSRSAGNASASA [HC1389]	-0.119
CATSNRQPRKAGNASASA [FS-1426]	2.06
